biological target: hemagglutinin of A/Brisbane/10/2007 (H3N2), in the influenza virus antigen standard (Influenza A virus A/Brisbane/10/2007 …, UniProt A8W8K8, strain); assay: ELISA; details: one partner purified

{"Binder": "R2a-E8 (VHH, source: E. coli WK6 periplasm, purified (Talon IMAC, Superdex 75 SEC)) VHH: QLQLVESGGGLVQPGGSLRLSCTASGDIFVMYMIDWYRQAPGKQRELVASIDGRGTPMYADSVKGRFTISRDNAKNTVYLQMNSLKPEDTAVYSCHAKSPLVDNEYWGQGTQVTVSS", "binding result": "no binding"}
{"Binder": "R1a-E5 (VHH, source: E. coli WK6 periplasm, purified (Talon IMAC, Superdex 75 SEC)) VHH: QLQLVESGGGLVQPGGSLRLSCTASGFSLDNYAIGWFRRAPGEEREGVSFITSTSAVTKYADSVKGRFTISRDNAKNTVYLQMTSLKPEDTAVYYCAGTRWVPTMKADEYNYWGQGTQVTVSS", "binding result": "no binding"}
